target: Misshapen-like kinase 1 (Homo sapiens); settings: at 1 µM
Description: GSK_PKIS: MINK mean inhibition at 1 uM [Nanosyn]
Measurement Label: inhibition (%)
Quick reminder: number only, in %, skip the unit.

>>> print(df.to_string())
                                   compound                        target_or_system  readout_value
0  Fc1cccc(COc2ccc(Nc3ncnc4cc(-c5ccc[nH]5)sc34)cc2Cl)c1  Misshapen-like kinase 1 (Homo sapiens)           12.7
1  Nc1nc(-c2ccc3c(c2)C(=Cc2cc(Br)c(O)c(Br)c2)C(=O)N3)cs1  Misshapen-like kinase 1 (Homo sapiens)           56.9

Give the measured inhibition of `c1cnn2ncc(-c3ccnc(Nc4ccc5c(c4)OCCO5)n3)c2c1` .
40.4

Value lookup for inhibition; key = `CCn1c(-c2nonc2N)nc2c(C#CC(C)(C)O)nc(OC[C@@H](N)c3ccccc3)cc21`
9.85

Would you kindly share the measured inhibition for `CCn1c(-c2nonc2N)nc2ccncc21` ?
3.29

Report inhibition for `COc1cc2c(cc1Nc1nc(N3CCc4ccccc43)c3cc[nH]c3n1)N(C(=O)CN(C)C)CC2` please.
-0.01

Quick check: inhibition of `NC(=O)c1ccc(-c2nc(-c3ccccn3)c(-c3ccc4c(c3)OCO4)[nH]2)cc1` ?
7.53

Please give the measured inhibition for this compound: CC1=C(C(=O)Nc2ccc3[nH]ncc3c2)C(c2ccc3ccccc3c2)CC(=O)N1 (stereo not given)
3.98

Quick one: inhibition of `CS(=O)(=O)Nc1ccc(N/C=C2\C(=O)Nc3ccccc32)cc1` ?
63.8

I would be grateful if you could share the reported inhibition for `COc1cc2ncn(-c3cc(O[C@@H](C)c4ccccc4Cl)c(C(N)=O)s3)c2cc1OC` .
28.5

###

test system: Serine/threonine-protein kinase B-raf (Homo sapiens), P15056 [V600E]; conditions: at 1 µM;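 further: enzyme inhibition of the BRAF V599E mutant kinase, given as mean percent inhibition, screened within the GSK PKIS kinase inhibitor set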
Sequence (P15056 whole entry V600E): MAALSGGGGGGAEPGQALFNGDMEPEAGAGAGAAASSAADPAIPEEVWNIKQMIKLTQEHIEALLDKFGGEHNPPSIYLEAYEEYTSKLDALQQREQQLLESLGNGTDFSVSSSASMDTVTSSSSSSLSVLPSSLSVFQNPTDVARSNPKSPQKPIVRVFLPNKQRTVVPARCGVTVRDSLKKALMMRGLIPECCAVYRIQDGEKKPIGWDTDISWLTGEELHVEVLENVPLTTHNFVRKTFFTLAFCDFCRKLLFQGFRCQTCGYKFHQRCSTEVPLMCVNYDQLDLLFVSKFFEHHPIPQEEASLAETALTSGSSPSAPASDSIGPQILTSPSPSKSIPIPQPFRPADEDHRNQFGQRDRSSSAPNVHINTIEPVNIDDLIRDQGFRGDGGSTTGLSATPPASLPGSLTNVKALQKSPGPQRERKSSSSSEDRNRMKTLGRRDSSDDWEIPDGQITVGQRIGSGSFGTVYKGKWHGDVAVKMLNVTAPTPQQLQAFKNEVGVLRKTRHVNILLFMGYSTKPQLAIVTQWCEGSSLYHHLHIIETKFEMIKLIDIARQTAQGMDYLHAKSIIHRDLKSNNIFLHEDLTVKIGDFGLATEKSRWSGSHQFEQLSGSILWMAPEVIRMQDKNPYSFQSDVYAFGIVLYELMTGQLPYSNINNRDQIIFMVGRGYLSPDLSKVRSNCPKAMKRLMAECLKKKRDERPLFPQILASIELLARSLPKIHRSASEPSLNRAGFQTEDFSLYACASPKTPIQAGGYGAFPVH
Description: GSK_PKIS: BRAF (V599E mutant) mean inhibition at 1 uM [Nanosyn]
Reported inhibition values are given for each entry in this list.
Give your result in % as a bare value.

Worked set:
>>> df
                                   compound  unit_info  readout_value
0             COc1ccccc1Nc1ncc(-c2ccccc2)o1          %           3.58
1  Cc1nn(C)c2cc(N(C)c3ccnc(Nc4cccc(S(N)(=O)=O)c4)n3)ccc12          %           6.87
2  COc1cc2c(cc1Nc1nc(N3CCc4ccccc43)c3cc[nH]c3n1)N(C(=O)CN(C)C)CC2          %           1.68
3               COc1ccc(-c2ccncc2)cc1C(N)=O          %           5.66
4  CCCN1CCC(Oc2cc(Nc3nc(Nc4cccc(F)c4C(N)=O)c4cc[nH]c4n3)c(OC)cc2Cl)CC1          %           23.7
5  CC1=C(C(=O)Nc2ccc3[nH]ncc3c2)C(c2ccc(Cl)c(Cl)c2)CC(=O)N1 (stereo not given)          %           31.4
6    N#Cc1c(NC(=O)c2cccc3ccccc23)sc2c1CCCC2          %            5.4
7  CC1=C(C(=O)Nc2ccc3[nH]ncc3c2)C(c2ccc(F)cc2)NC(=O)N1 (stereo not given)          %           6.38

Data request, read-out inhibition, for `Nc1nc(-c2ccc3c(c2)C(=Cc2cc(Br)c(O)c(Br)c2)C(=O)N3)cs1`
14.7

State the recorded inhibition for this entry: `Cc1ccc(NC(=O)c2ccnc(N3CCCC3)c2)cc1-c1ccc(C(=O)NCC2CC2)cc1`
15
